Exercise: state measured growth for each of the compounds provided.
System: NCI-H226 lung
Assay: NCI-60 one-dose screen, 48 h (100 = growth as untreated, 0 = no growth, -100 = all killed)
Details: 10 µM unless noted
Method: Growth inhibition of the NCI-H226 human Non-Small Cell Lung tumor cell line is measured as a screen for anti-cancer activity. Cells are grown in 96 well plates and exposed to the test compound for 48 hours. Compounds are tested at a single concentration, which is 10^-5 M for most compounds. The reported endpoint is percent growth (GI% or GIPRCNT), where numbers from 0 - 100% represent growth inhibition, and numbers from -100% - 0 represent cell death. […]
The panel holds about 83,000 compounds, 20% with a hit somewhere; the sample as a whole holds those more often.
Give bare numbers, in %.

COMPOUND: CCCC1OC(c2ccco2)OCC1CC (configuration not stated)
growth, %: 111

Parameters: items (list). Returns: growth for each item.
1. COC1OC(CO)C(OC)C(O)C1O (configuration not stated)
2. Oc1ccc2ccccc2c1CN1CCOCC1
3. C1Cc2onc(-c3noc4c3CCC4)c2C1
4. CC(=O)c1cc(O)ccc1O
5. O=S(=O)(OCCOS(=O)(=O)c1ccccc1)c1ccccc1
6. Cn1c(=O)[nH]c2ccccc2c1=O

102
105
120
98
87.6
109

* * *

Test system: A549/ATCC NSCLC
Assay: NCI-60 one-dose screen, 48 h (100 = growth as untreated, 0 = no growth, -100 = all killed)
Conditions: 10 µM unless noted
Description: Growth inhibition of the A549/ATCC human Non-Small Cell Lung tumor cell line is measured as a screen for anti-cancer activity. Cells are grown in 96 well plates and exposed to the test compound for 48 hours. Compounds are tested at a single concentration, which is 10^-5 M for most compounds. The reported endpoint is percent growth (GI% or GIPRCNT), where numbers from 0 - 100% represent growth inhibition, and numbers from -100% - 0 represent cell death. […]
About 83,000 compounds went through this panel and 20% of them were active in at least one assay; those are over-represented in the sample as a whole.
Exercise: state measured growth for each of the compounds provided.
One number for each entry, in %.

COMPOUND: O=C(NCc1ccccc1)c1cccc([N+](=O)[O-])c1
VALUE_REPORTED: 88.2
--
COMPOUND: O=C(c1ccccc1O)N1CCCC1
VALUE_REPORTED: 74.9
--
COMPOUND: CC(CCC#N)(CCC#N)C(=O)c1ccccc1
VALUE_REPORTED: 97.1
--
COMPOUND: CC(=O)Nc1ncc(S(=O)(=O)c2ccc([N+](=O)[O-])cc2)s1
VALUE_REPORTED: 103
--
COMPOUND: NC(CCl)=NCC12CC3CC(CC(C3)C1)C2
VALUE_REPORTED: -47.1

Parameters: items (list). Returns: growth for each item.
1. O=C1CSc2ccccc2N1
2. CN1CCCN(C(c2ccccc2)c2ccc(Br)cc2)CC1 (stereo unspecified)
3. CCCCCCCCNC(=O)C(C)C
4. CN(C)c1ccc(/C=C/C(=O)c2ccc(NC(N)=O)cc2)cc1

[96.5, 87.7, 102, 84.5]

Parameters: items (list). Returns: growth for each item.
1. Cc1cc2c(C(C)C)c(O)c(O)c(C=Nc3ccccc3[N+](=O)[O-])c2c(O)c1-c1c(C)cc2c(C(C)C)c(O)c(O)c(C=Nc3ccccc3[N+](=O)[O-])c2c1O
2. CCOC(=O)Nc1nccs1
3. O=C(c1ccc(Cl)cc1)N1CCCCC1
4. O=[N+]([O-])c1ccc(-c2nc(N(CCO)CCO)c3ccccc3n2)o1
5. COCC(N)=O
6. O=C1NC(=O)C(c2ccccc2)O1 (stereo unspecified)
7. CCOc1ccc(C(=O)O)cc1
8. CCOc1ccc(NC(=S)N2CCC(CCCC3CCN(C(=S)Nc4ccc(OCC)cc4)CC3)CC2)cc1

1: 52; 2: 98.3; 3: 95.4; 4: -0.496; 5: 104; 6: 100; 7: 108; 8: 83.3

Parameters: items (list). Returns: growth for each item.
1. COc1cc(CC#N)c([N+](=O)[O-])cc1OC
2. CSc1cnc2ccccc2n1
3. O=[N+]([O-])c1c(Cl)ncnc1Cl

1. 102
2. 82.8
3. 92.8

Parameters: items (list). Returns: growth for each item.
1. CCN(CC)c1ccc2nc3ccc(N=Nc4ccc(N(C)C)cc4)cc3[n+](-c3ccccc3)c2c1
2. NC(=S)c1c(N)n(C2OC(CO)C(O)C2O)c2ncnc(N)c12 (stereo unspecified)
3. Clc1cccc(Cl)c1C1CSc2ccccc2N=C1c1ccccc1 (stereo unspecified)
4. COC(=O)c1ccc([N+](=O)[O-])c(C)c1
5. CC(=O)OC/C(C)=C\CC(C)COC(C)=O (stereo unspecified)
6. ON1CCCC1

3.32
5.46
73.8
107
106
100

* * *

test system: SN12C renal; experiment: NCI-60 one-dose screen, 48 h (100 = growth as untreated, 0 = no growth, -100 = all killed); conditions: 10 µM unless noted
The panel holds about 83,000 compounds, 20% with a hit somewhere; the sample as a whole holds those more often.
EXPERIMENTAL_READOUT: growth (%)
Numbers only, in %.

COMPOUND: Cc1ccc(C)c(CN(C)C)c1O
UNIT_SPEC: %
growth: 115

Parameters: items (list). Returns: growth for each item.
1. COC1OC(CO)C(OC)C(O)C1O (configuration not stated)
2. CCN1CCCC(N2c3ccccc3Sc3ccccc32)C1 (configuration not stated)
3. CCOC(=O)c1ccc(NC(=O)Nc2nccs2)cc1
4. OC1Cc2ccccc2C1
5. Cc1ccc(C(C)C)c(OCC(=O)O)c1
6. Oc1ccc(CCC2CCNc3ccccc32)cc1 (configuration not stated)
7. COc1c(CNC(=O)CCl)cc2[nH]c(C)cc2c1CNC(=O)CCl

1. 104
2. 101
3. 24.7
4. 104
5. 100
6. 86
7. 53.7

* * *

system: MOLT-4 leukemia; assay: NCI-60 one-dose screen, 48 h; conditions: 10 µM unless noted
This is part of a sample that, as a whole, favours compounds with a hit. Of some 83,000 tested, about 20% had one in any assay. Calls of active or inactive are those of the source. How the source made its calls: active means growth percent below 10; inactive means the rest.
// one of Yes = active, No = inactive, no free text

COMPOUND: Clc1ncnc2nc[nH]c12
CLASS: No
//
COMPOUND: Cc1ccc(S(=O)(=O)NC(=O)NCCSSCCNC(=O)NS(=O)(=O)c2ccc(C)cc2)cc1
CLASS: No
//
COMPOUND: CC(C)c1ncc([N+](=O)[O-])n1C
CLASS: No
//
COMPOUND: ClCc1cccc2c(CCl)cccc12
CLASS: No
//
COMPOUND: Nc1nc2nnc(-c3ccccc3)c(-c3ccccc3)n2n1
CLASS: No
//
COMPOUND: CC(=O)N(C)N=Nc1ccc(C)cc1
CLASS: No
//
COMPOUND: CN(C)CCOC(=O)Nc1ccc(Cc2ccc(NC(=O)OCCN(C)C)cc2)cc1
CLASS: No
//
COMPOUND: O=C(c1ccc(Cl)cc1)N1CCCCC1
CLASS: No
//
COMPOUND: CCN(C(C)=O)c1ccc([N+](=O)[O-])cc1
CLASS: No
//
COMPOUND: ClCC(Cl)C1CCC(Cl)C(Cl)C1 (stereo not drawn)
CLASS: No

// outcome(item) with item = CC(=O)OCC1OC(n2cnc3c(=S)nc(N)[nH]c32)C(OC(C)=O)C1OC(C)=O (stereo not drawn)
Yes

// outcome(item) with item = "S=CN1CCCCC1"
No

// outcome(item) with item = "NC(CCl)=NCC12CC3CC(CC(C3)C1)C2"
No

* * *

system: SK-MEL-28 melanoma; assay: NCI-60 one-dose screen, 48 h; settings: 10 µM unless noted
This is part of a sample that, as a whole, favours compounds with a hit. Of some 83,000 tested, about 20% had one in any assay. The source made the active and inactive calls. The calls were made as follows: active = growth percent below 10; inactive = the rest.
// one of active, inactive, no free text

Answered examples (10):
COMPOUND: COC(=O)Cc1cc(COC(C)=O)ccc1C
CLASS: inactive
//
COMPOUND: S=CN1CCCCC1
CLASS: inactive
//
COMPOUND: C/C(=N\Nc1ccc([N+](=O)[O-])cc1[N+](=O)[O-])c1ccc(Br)cc1
CLASS: inactive
//
COMPOUND: CC1CC2C3CCC4=CC(=O)CCC4(C)C3CCC2(C)C1(O)C(=O)CO (stereo not drawn)
CLASS: inactive
//
COMPOUND: Cc1ccc(N)c(S(=O)(=O)O)c1
CLASS: inactive
//
COMPOUND: O=C1C=Cc2ccccc2/C1=C/c1[nH]c(=O)[nH]c1O
CLASS: inactive
//
COMPOUND: COC1(OC)C2(Cl)C(Cl)=C(Cl)C1(Cl)C1COCC12 (stereo not drawn)
CLASS: inactive
//
COMPOUND: CCCCCCCCCCCCCC/C=C\C(CC(=O)O)C(=O)O (stereo not drawn)
CLASS: inactive
//
COMPOUND: CSc1cnc2ccccc2n1
CLASS: inactive
//
COMPOUND: O=C(O)C1CCCN1C(=O)OCc1ccccc1 (stereo not drawn)
CLASS: inactive

// outcome(item) with item = "CCOC(=O)c1ccc(NC(=O)Nc2nccs2)cc1"
inactive

// outcome(item) with item = CC(CC(CCC(=O)O)(c1ccccc1)c1ccccc1)N(C)C (stereo not drawn)
inactive

// outcome(item) with item = "O=C(O)Cc1cccc2ccccc12"
inactive

// outcome(item) with item = "O=C1NC(=O)/C(=C\c2ccncc2)N1"
inactive

// outcome(item) with item = "CCCCOC(=O)c1ccccc1O"
inactive

// outcome(item) with item = "O=C(CC(CC(=O)c1ccccc1)c1ccccn1)c1ccccc1"
inactive

// outcome(item) with item = "c1ccc(Nc2ccccn2)nc1"
inactive

// outcome(item) with item = COc1ccc(C2CCCCC2=O)cc1 (stereo not drawn)
inactive

// outcome(item) with item = "COc1ccc2c(c1)Nc1ccccc1S2"
inactive

// outcome(item) with item = "CN(CCCN(C)CCC1CCCCC1)CCC1CCCCC1"
active

// outcome(item) with item = "CN(C)c1ccc2nc3ccc(=[N+](C)C)cc-3oc2c1"
inactive

// outcome(item) with item = "CCNCC(C)(C)O"
inactive

// outcome(item) with item = "S=c1nc2[nH]c3ccccc3c2n[nH]1"
inactive

// outcome(item) with item = CC(=O)NC(O)C(Cl)Cl (stereo not drawn)
inactive

// outcome(item) with item = "O=C(c1cccc(C(=O)c2ccc3c4c(cccc24)C(=O)N(c2ccccc2)C3=O)c1)c1ccc2c3c(cccc13)C(=O)N(c1ccccc1)C2=O"
inactive

// outcome(item) with item = "Cn1c(=O)c2[nH]c(CC(=O)O)nc2n(C)c1=O"
inactive

// outcome(item) with item = "NC(=S)N/N=C/c1ccc(Cl)cc1"
inactive

// outcome(item) with item = "O=C(Oc1ccccc1Cl)c1ccc(Cl)cc1Cl"
inactive
